For each of the binders below, state its glycan array binding signal (z-score).
# TARGET_ENTITY: GlcNAc6S(b1-3)Gal(b1-4)GlcNAc
# ASSAY_NOTES: glycan array binding signal (z-score within array); higher = stronger binding
# RUN_PARAMETERS: glycan notation: IUPAC condensed, linker removed
Many of the other results were omitted from the sample, so the strongest signals are more common in it than they were.
One number for each entry.

DC-ASGPR-short (Homo sapiens) (protein) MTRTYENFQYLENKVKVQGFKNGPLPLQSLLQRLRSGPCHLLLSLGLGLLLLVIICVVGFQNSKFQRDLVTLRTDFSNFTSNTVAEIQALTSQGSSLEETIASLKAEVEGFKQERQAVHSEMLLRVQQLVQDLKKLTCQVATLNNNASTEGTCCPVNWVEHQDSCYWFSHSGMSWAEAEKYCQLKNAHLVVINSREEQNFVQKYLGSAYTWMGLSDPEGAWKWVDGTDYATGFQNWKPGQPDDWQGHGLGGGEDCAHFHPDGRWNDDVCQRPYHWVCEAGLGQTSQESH    -0.27

Now turn to the next binder.
Qu. Using the record for Gal 8 (Homo sapiens), O00214_1 (protein) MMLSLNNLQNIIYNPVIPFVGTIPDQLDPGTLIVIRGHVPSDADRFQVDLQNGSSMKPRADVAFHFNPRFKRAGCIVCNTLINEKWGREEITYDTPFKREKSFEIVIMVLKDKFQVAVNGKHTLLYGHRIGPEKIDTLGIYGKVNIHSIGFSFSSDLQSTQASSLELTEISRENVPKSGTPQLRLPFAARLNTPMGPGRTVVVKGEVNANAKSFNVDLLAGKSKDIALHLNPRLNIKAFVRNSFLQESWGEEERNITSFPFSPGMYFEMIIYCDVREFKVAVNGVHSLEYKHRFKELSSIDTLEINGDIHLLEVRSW , report its glycan array binding signal (z-score).
Ans. -0.585
